Data provenance: paper PMC5540273

Catalogue of compounds with associated %Inh
- System: TRKA;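 also: KINOMEscan kinase panel screen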
- Construct: gene NTRK1
- conditionDetails: concentration: 1 μM, replicates: in singlicate; n = 1

[
  {
    "smilesStructure": "COC(=O)c1c(-c2ccccc2)c2cc(Cl)ccc2c(=O)n1Cc1ccc(S(C)(=O)=O)cc1",
    "%Inh [%]": 0
  },
  {
    "smilesStructure": "Fc1ccc(Nc2nccc(-c3c(-c4ccc(Cl)cc4)nn4ncccc34)n2)cc1F",
    "%Inh [%]": 13
  },
  {
    "smilesStructure": "Nc1nc(-c2ccc3c(N)n[nH]c3c2)cc(N2CCCCC2)n1",
    "%Inh [%]": 0
  },
  {
    "smilesStructure": "CN1CCC(n2cnc(-c3ccc(F)cc3)c2-c2ccnc(NC3CCNCC3)n2)CC1",
    "%Inh [%]": 17
  },
  {
    "smilesStructure": "CCC(CC)(CC)n1cnc2c(N)ncnc21",
    "%Inh [%]": 41
  }
]
